# Test system: 186277-243-T-J2-PDC multi-cell spheroid viability
# protocol-summary: Anticancer human tumor 186277-243-T-J2-PDC patient-derived colon adenocarcinoma cell line growth inhibition [PI3K]
# measurement-context: second compound 0.316 µM; first compound 0.0949 µM; hits give low values
Property: viability, T/C; scope: individual molecules
Return type: number; implicit unit %.

Worked set:
In [3]: df
Out[3]:
                                   molecule                     target_or_test_system  outcome_measure  quantitative_readout
0  Cn1cnc2c(F)c(Nc3ccc(Br)cc3Cl)c(C(=O)NOCCO)cc21 + Cc1nc(NC(=O)N2CCCC2C(N)=O)sc1-c1ccnc(C(C)(C)C(F)(F)F)c1  186277-243-T-J2-PDC multi-cell spheroid viability   viability, T/C                  28.9
1  Cn1cnc2c(F)c(Nc3ccc(Br)cc3Cl)c(C(=O)NOCCO)cc21 + CC(Nc1ncnc2nc[nH]c12)c1cc2cccc(Cl)c2c(=O)n1-c1ccccc1  186277-243-T-J2-PDC multi-cell spheroid viability   viability, T/C                  57.4
2  Cn1cnc2c(F)c(Nc3ccc(Br)cc3Cl)c(C(=O)NOCCO)cc21 + COc1c(OCCCN2CCOCC2)ccc2c3n(c(=NC(=O)c4cnc(N)nc4)nc12)CCN3  186277-243-T-J2-PDC multi-cell spheroid viability   viability, T/C                  1.66

Now for a further molecule.
Ask: Need viability, T/C of Cn1cnc2c(F)c(Nc3ccc(Br)cc3Cl)c(C(=O)NOCCO)cc21 + CC(Nc1ccc2c(c1)OCCn1cc(N3C(=O)OCC3C(F)F)nc1-2)C(N)=O , thanks.
Reply: 9.95

* * *

# Tested on: 186277-243-T-J2-PDC multi-cell spheroid viability
# protocol-summary: Anticancer human tumor 186277-243-T-J2-PDC cell line growth inhibition [PI3K]; active = viability on the fitted dose curve at most 10% of control; inactive = the rest;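 further: spheroids exposed to compounds for seven days before viability reading; 100% = DMSO vehicle control viability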
# measurement-context: second compound 0.1 µM; first compound 1 µM
Use one of these outcomes when replying: 1 = active, 0 = inactive

Example entries and their recorded answers appear below.
compound	label-class
C#Cc1c(F)ccc2cc(O)cc(-c3ncc4c(N5CC6CCC(C5)N6)nc(OCC56CCCN5CC(F)C6)nc4c3F)c12 (stereo not drawn) + COc1c(OCCCN2CCOCC2)ccc2c3n(c(=NC(=O)c4cnc(N)nc4)nc12)CCN3	1
CC1(C)CCC(Nc2ncc(C(F)(F)F)c(-c3c[nH]c4c(P(C)(C)=O)c(C#N)ccc34)n2)CN1 (stereo not drawn) + CC(Nc1ccc2c(c1)OCCn1cc(N3C(=O)OCC3C(F)F)nc1-2)C(N)=O	0

Ask: Field: outcome | Entry: CCCS(=O)(=O)Nc1ccc(F)c(C(=O)c2c[nH]c3ncc(-c4ccc(Cl)cc4)cc23)c1F + Cc1nc(NC(=O)N2CCCC2C(N)=O)sc1-c1ccnc(C(C)(C)C(F)(F)F)c1
Reply: 0

* * *

Property: viability, T/C; scope: individual compounds
# Test system: 186277-243-T-J2-PDC multi-cell spheroid viability
# protocol-summary: Anticancer human tumor 186277-243-T-J2-PDC cell line growth inhibition [PI3K];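 further: spheroids exposed to compounds for seven days before viability reading; 100% = DMSO vehicle control viability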
# measurement-context: second compound 0.01 µM; first compound 0.316 µM; hits give low values
Return type: number; implicit unit %.

compound	target-or-test-system	quantitative-readout
CCN1CCN(Cc2ccc(Nc3ncc(F)c(-c4cc(F)c5nc(C)n(C(C)C)c5c4)n3)nc2)CC1 + CC(Nc1ccc2c(c1)OCCn1cc(N3C(=O)OCC3C(F)F)nc1-2)C(N)=O	186277-243-T-J2-PDC multi-cell spheroid viability	142
CC(C)NCC(C(=O)N1CCN(c2ncnc3c2C(C)CC3O)CC1)c1ccc(Cl)cc1 (stereo not given) + COc1c(OCCCN2CCOCC2)ccc2c3n(c(=NC(=O)c4cnc(N)nc4)nc12)CCN3	186277-243-T-J2-PDC multi-cell spheroid viability	68.8
Cn1ncc(Cl)c1-c1cc(C(=O)NC(CN)Cc2cccc(F)c2)sc1Cl (stereo not given) + CC(Nc1ccc2c(c1)OCCn1cc(N3C(=O)OCC3C(F)F)nc1-2)C(N)=O	186277-243-T-J2-PDC multi-cell spheroid viability	44.6
Cn1nccc1Nc1nccc(-c2ccn(C(CO)c3ccc(Cl)c(F)c3)c(=O)c2)n1 (stereo not given) + COc1c(OCCCN2CCOCC2)ccc2c3n(c(=NC(=O)c4cnc(N)nc4)nc12)CCN3	186277-243-T-J2-PDC multi-cell spheroid viability	57.7

Now for a further compound.
Ask: Need viability, T/C of CC1(C)CCC(CN2CCN(c3ccc(C(=O)NS(=O)(=O)c4ccc(NCC5CCOCC5)c([N+](=O)[O-])c4)c(Oc4cnc5[nH]ccc5c4)c3)CC2)=C(c2ccc(Cl)cc2)C1 + CC(Nc1ccc2c(c1)OCCn1cc(N3C(=O)OCC3C(F)F)nc1-2)C(N)=O , thanks.
Reply: 95.1

* * *

# Tested on: 186277-243-T-J2-PDC multi-cell spheroid viability
# protocol-summary: Anticancer human tumor 186277-243-T-J2-PDC cell line growth inhibition [PI3K];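 further: spheroids exposed to compounds for seven days before viability reading; 100% = DMSO vehicle control viability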
# measurement-context: second compound 0.316 µM; first compound 0.0316 µM; hits give low values
# From the text: Combinatorial screen of targeted agents with the PI3K inhibitors inavolisib, alpelisib, duvelisib, and copanlisib in multi-cell type tumor spheroids A high-throughput screen of multi-cell type tumor spheroids was designed to identify active combinations of targeted small molecules and PI3K pathway inhibitors. […] Compounds. […] If the clinical Cmax for an agent had not been determined, the highest concentration tested was 10 microM. […]
Label class 1 when viability, T/C is strictly below 6%; at or above that, label class 0.

compound	label-class
C[C@@H](NC(=O)c1ncnc(N)c1Cl)c1ncc(C(=O)Nc2cc(C(F)(F)F)c(Cl)cn2)s1 + CC(Nc1ncnc2nc[nH]c12)c1cc2cccc(Cl)c2c(=O)n1-c1ccccc1	class 0

Ask: In the record for CC(C)n1nc(-c2ccc3oc(N)nc3c2)c2c(N)ncnc21 + COc1c(OCCCN2CCOCC2)ccc2c3n(c(=NC(=O)c4cnc(N)nc4)nc12)CCN3 , is viability, T/C less than 6%?
Reply: class 1

Ask: In the record for CC(C)NCC(C(=O)N1CCN(c2ncnc3c2C(C)CC3O)CC1)c1ccc(Cl)cc1 (stereo unspecified) + Cc1nc(NC(=O)N2CCCC2C(N)=O)sc1-c1ccnc(C(C)(C)C(F)(F)F)c1 , is viability, T/C less than 6%?
Reply: class 0

Ask: In the record for CC(C)n1nc(-c2ccc3oc(N)nc3c2)c2c(N)ncnc21 + CC(Nc1ncnc2nc[nH]c12)c1cc2cccc(Cl)c2c(=O)n1-c1ccccc1 , is viability, T/C less than 6%?
Reply: class 0

Ask: In the record for Cn1nccc1Nc1nccc(-c2ccn(C(CO)c3ccc(Cl)c(F)c3)c(=O)c2)n1 (stereo unspecified) + CC(Nc1ccc2c(c1)OCCn1cc(N3C(=O)OCC3C(F)F)nc1-2)C(N)=O , is viability, T/C less than 6%?
Reply: class 0

Ask: In the record for CC1(C)CCC(CN2CCN(c3ccc(C(=O)NS(=O)(=O)c4ccc(NCC5CCOCC5)c([N+](=O)[O-])c4)c(Oc4cnc5[nH]ccc5c4)c3)CC2)=C(c2ccc(Cl)cc2)C1 + CC(Nc1ccc2c(c1)OCCn1cc(N3C(=O)OCC3C(F)F)nc1-2)C(N)=O , is viability, T/C less than 6%?
Reply: class 0

Ask: In the record for CNC(=O)c1ccc(N2C(=S)N(c3ccc(C#N)c(C(F)(F)F)c3)C(=O)C2(C)C)cc1F + CC(Nc1ccc2c(c1)OCCn1cc(N3C(=O)OCC3C(F)F)nc1-2)C(N)=O , is viability, T/C less than 6%?
Reply: class 0

* * *

# Tested on: 186277-243-T-J2-PDC multi-cell spheroid viability
# protocol-summary: Anticancer human tumor 186277-243-T-J2-PDC cell line growth inhibition [PI3K];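 further: spheroids exposed to compounds for seven days before viability reading; 100% = DMSO vehicle control viability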
# measurement-context: second compound 0.0316 µM; first compound 0.0316 µM; hits give low values
outcome-measure: viability, T/C (%)
Return type: number; implicit unit %.

Worked set:
compound	outcome-measure	quantitative-readout
CC(C)NCC(C(=O)N1CCN(c2ncnc3c2C(C)CC3O)CC1)c1ccc(Cl)cc1 (stereo unspecified) + CC(Nc1ccc2c(c1)OCCn1cc(N3C(=O)OCC3C(F)F)nc1-2)C(N)=O	viability, T/C	104
CC1(C)CCC(Nc2ncc(C(F)(F)F)c(-c3c[nH]c4c(P(C)(C)=O)c(C#N)ccc34)n2)CN1 (stereo unspecified) + CC(Nc1ccc2c(c1)OCCn1cc(N3C(=O)OCC3C(F)F)nc1-2)C(N)=O	viability, T/C	78
C=CC(=O)N1CCN(c2nc(=O)n(-c3c(C)ccnc3C(C)C)c3nc(-c4c(O)cccc4F)c(F)cc23)C(C)C1 (stereo unspecified) + CC(Nc1ncnc2nc[nH]c12)c1cc2cccc(Cl)c2c(=O)n1-c1ccccc1	viability, T/C	100
CCCS(=O)(=O)Nc1ccc(F)c(C(=O)c2c[nH]c3ncc(-c4ccc(Cl)cc4)cc23)c1F + CC(Nc1ncnc2nc[nH]c12)c1cc2cccc(Cl)c2c(=O)n1-c1ccccc1	viability, T/C	85.8
CC(=O)c1c(C)c2cnc(Nc3ccc(N4CCNCC4)cn3)nc2n(C2CCCC2)c1=O + Cc1nc(NC(=O)N2CCCC2C(N)=O)sc1-c1ccnc(C(C)(C)C(F)(F)F)c1	viability, T/C	123
C#Cc1c(F)ccc2cc(O)cc(-c3ncc4c(N5CC6CCC(C5)N6)nc(OCC56CCCN5CC(F)C6)nc4c3F)c12 (stereo unspecified) + CC(Nc1ncnc2nc[nH]c12)c1cc2cccc(Cl)c2c(=O)n1-c1ccccc1	viability, T/C	98.9
CC1(C)CCC(CN2CCN(c3ccc(C(=O)NS(=O)(=O)c4ccc(NCC5CCOCC5)c([N+](=O)[O-])c4)c(Oc4cnc5[nH]ccc5c4)c3)CC2)=C(c2ccc(Cl)cc2)C1 + COc1c(OCCCN2CCOCC2)ccc2c3n(c(=NC(=O)c4cnc(N)nc4)nc12)CCN3	viability, T/C	80.8
CC(=O)c1c(C)c2cnc(Nc3ccc(N4CCNCC4)cn3)nc2n(C2CCCC2)c1=O + COc1c(OCCCN2CCOCC2)ccc2c3n(c(=NC(=O)c4cnc(N)nc4)nc12)CCN3	viability, T/C	51.3
C[C@@H](NC(=O)c1ncnc(N)c1Cl)c1ncc(C(=O)Nc2cc(C(F)(F)F)c(Cl)cn2)s1 + CC(Nc1ncnc2nc[nH]c12)c1cc2cccc(Cl)c2c(=O)n1-c1ccccc1	viability, T/C	92.6
Cn1ncc(Cl)c1-c1cc(C(=O)NC(CN)Cc2cccc(F)c2)sc1Cl (stereo unspecified) + Cc1nc(NC(=O)N2CCCC2C(N)=O)sc1-c1ccnc(C(C)(C)C(F)(F)F)c1	viability, T/C	96.2

Ask: Need viability, T/C of CC(Cn1ccc(-c2ccc(C#N)c(Cl)c2)n1)NC(=O)c1cc(C(C)O)[nH]n1 (stereo unspecified) + CC(Nc1ncnc2nc[nH]c12)c1cc2cccc(Cl)c2c(=O)n1-c1ccccc1 , thanks.
Reply: 91

Ask: Need viability, T/C of CC1(C)CCC(CN2CCN(c3ccc(C(=O)NS(=O)(=O)c4ccc(NCC5CCOCC5)c([N+](=O)[O-])c4)c(Oc4cnc5[nH]ccc5c4)c3)CC2)=C(c2ccc(Cl)cc2)C1 + CC(Nc1ccc2c(c1)OCCn1cc(N3C(=O)OCC3C(F)F)nc1-2)C(N)=O , thanks.
Reply: 106

Ask: Need viability, T/C of CC1(C)CCC(Nc2ncc(C(F)(F)F)c(-c3c[nH]c4c(P(C)(C)=O)c(C#N)ccc34)n2)CN1 (stereo unspecified) + CC(Nc1ncnc2nc[nH]c12)c1cc2cccc(Cl)c2c(=O)n1-c1ccccc1 , thanks.
Reply: 77.7

Ask: Need viability, T/C of C[C@@H](NC(=O)c1ncnc(N)c1Cl)c1ncc(C(=O)Nc2cc(C(F)(F)F)c(Cl)cn2)s1 + Cc1nc(NC(=O)N2CCCC2C(N)=O)sc1-c1ccnc(C(C)(C)C(F)(F)F)c1 , thanks.
Reply: 87.8

Ask: Need viability, T/C of Cn1ncnc1[C@H]1c2n[nH]c(=O)c3cc(F)cc(c23)N[C@@H]1c1ccc(F)cc1 + COc1c(OCCCN2CCOCC2)ccc2c3n(c(=NC(=O)c4cnc(N)nc4)nc12)CCN3 , thanks.
Reply: 47.2

Ask: Need viability, T/C of CCN1CCN(Cc2ccc(Nc3ncc(F)c(-c4cc(F)c5nc(C)n(C(C)C)c5c4)n3)nc2)CC1 + COc1c(OCCCN2CCOCC2)ccc2c3n(c(=NC(=O)c4cnc(N)nc4)nc12)CCN3 , thanks.
Reply: 57.8

Ask: Need viability, T/C of CC(Cn1ccc(-c2ccc(C#N)c(Cl)c2)n1)NC(=O)c1cc(C(C)O)[nH]n1 (stereo unspecified) + CC(Nc1ccc2c(c1)OCCn1cc(N3C(=O)OCC3C(F)F)nc1-2)C(N)=O , thanks.
Reply: 106

Ask: Need viability, T/C of Cn1ncnc1[C@H]1c2n[nH]c(=O)c3cc(F)cc(c23)N[C@@H]1c1ccc(F)cc1 + CC(Nc1ncnc2nc[nH]c12)c1cc2cccc(Cl)c2c(=O)n1-c1ccccc1 , thanks.
Reply: 104

Ask: Need viability, T/C of CC(C)NCC(C(=O)N1CCN(c2ncnc3c2C(C)CC3O)CC1)c1ccc(Cl)cc1 (stereo unspecified) + CC(Nc1ncnc2nc[nH]c12)c1cc2cccc(Cl)c2c(=O)n1-c1ccccc1 , thanks.
Reply: 90.7

Ask: Need viability, T/C of C[C@@H](NC(=O)c1ncnc(N)c1Cl)c1ncc(C(=O)Nc2cc(C(F)(F)F)c(Cl)cn2)s1 + COc1c(OCCCN2CCOCC2)ccc2c3n(c(=NC(=O)c4cnc(N)nc4)nc12)CCN3 , thanks.
Reply: 87.7

Ask: Need viability, T/C of CNC(=O)c1ccc(N2C(=S)N(c3ccc(C#N)c(C(F)(F)F)c3)C(=O)C2(C)C)cc1F + COc1c(OCCCN2CCOCC2)ccc2c3n(c(=NC(=O)c4cnc(N)nc4)nc12)CCN3 , thanks.
Reply: 88.9
